# Measured On: H-2Kk (Mus musculus, UniProt P04223)
# Sequence (P04223 22-369): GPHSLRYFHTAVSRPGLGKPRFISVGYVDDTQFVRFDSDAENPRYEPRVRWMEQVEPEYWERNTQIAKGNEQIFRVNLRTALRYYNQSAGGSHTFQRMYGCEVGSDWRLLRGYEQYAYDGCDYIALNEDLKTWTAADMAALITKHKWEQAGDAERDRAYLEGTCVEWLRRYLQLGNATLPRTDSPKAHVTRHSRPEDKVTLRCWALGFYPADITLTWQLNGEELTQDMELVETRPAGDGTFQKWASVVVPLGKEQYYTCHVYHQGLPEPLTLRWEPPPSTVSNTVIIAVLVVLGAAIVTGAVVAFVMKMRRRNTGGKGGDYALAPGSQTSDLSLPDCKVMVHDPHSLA
# Sequence (P61769 21-119, further chain): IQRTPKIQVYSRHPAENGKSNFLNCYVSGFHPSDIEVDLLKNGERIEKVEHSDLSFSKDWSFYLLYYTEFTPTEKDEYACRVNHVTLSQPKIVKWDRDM
# Method: biochemical
# Type: binding, murine
No end group written: not given here.
Endpoint Name: log10 IC50 (log10 of the value in nM)
In our notation, the value equals log10 of IC50 in nM.

QEKKRHVDL : 2.41
EEKHEKKHV : 2.45
VESENKVV : 2.54
NEILIRCII : 1.08
YENDIEKKI : 0.58
YEDTGKTI : -0.07

Reported log10 IC50, sequence `SEAAYAKKI` : ____
0.59

Requested field: log10 IC50. Item: `HETTYNSI`
0.26

Which log10 IC50 reading was recorded for the sequence `SDYEGRLI` ?
-0.22

Report log10 IC50 for `NEEPSDKHI` please.
1.60

Dear colleague, I am looking for the recorded log10 IC50 of the following sequence: `YEANGNLI`
-0.19

----------
Measured log10(IC50) of individual entries
# Measured On: HLA-B*3501 (Homo sapiens, UniProt P01889, A329T/A93T/A95T/C349S/D201E/D98Y/E176V/E187L/E204Q/E69T/I218V/K202T/L119I/Q94N/R155S/R180L/S121R/S35A/S48A/T118I/V127L/V306I/V36M/Y140S/Y91F)
# Method: biochemical
# Run Parameters: B*3501 binding affinity (IC50)
No end group written: not given here.
Please keep in mind that the values are log10 of IC50 expressed in µM.

// query log10(IC50) value for entry `SPGPGPGL`
0.37

----------
# Measured On: HLA-DR DRB4*0101 (DR53) (Homo sapiens, UniProt P01903+P13762, G164S)
# Method: biochemical
# Format: binding
# Run Parameters: DRB4 *0101
No end group written: not given here.
Assign classes using reported IC50 values and the ranges L: < 0.6 µM; M: ≥ 0.6 µM and < 7 µM; H: ≥ 7 µM, please.

NGVLQGITSWGSEPC : M
PRWLCAGALVLAGGF : M
GLALLSEAVLRGQAL [GLALLSEAVLRGQAL] : L
QWVLTAAHCLKKNSQ : H
HPLYNMSLLKHQSLR : L
ALLKNYGLLYTFRKD : M

Hi there! Could you help me figure out the category for `SLSLGFLFLLFFWLD` please?
H

Classify this sequence: `RTSIRASLTFNRGFK`
L

Which IC50 band matches `SKIMKLPKLPISNGK` ?
M

# bin label for `LQQMLLGTLQVVCPG`
M

Band for the recorded IC50 of `RTAMFQDPQERPRKL` ?
H

----------
Entries and their IC50
# Measured On: HLA-DR DRB1*0701 (DR7) (Homo sapiens, UniProt P01903+P01911, A100R/A102G/A103Q/D57E/D86V/E43K/F76Y/K127E/L162R/M171V/P40G/Q125H/Q99D/R33Q/R42Y/R54Q/S133A/S66F/T210M/V115G/Y107V/Y59L/Y89S)
# Method: biochemical
# Type: binding
# Run Parameters: DRB1 *0701
Give just the numeric value; nM need not be written.

CSCC[C@H](NC(=O)[C@@H]1CCCN1C(=O)[C@H](CC(=O)O)NC(=O)[C@@H](N)Cc1ccc(O)cc1)C(=O)N[C@@H](Cc1ccccc1)C(=O)N[C@@H](CCCCN)C(=O)N[C@@H](Cc1ccc(O)cc1)C(=O)N[C@@H](Cc1c[nH]cn1)C(=O)N[C@@H](CC(C)C)C(=O)N[C@H](C(=O)N[C@H](C(=O)N[C@@H](C)C(=O)N[C@@H](CCC(N)=O)C(=O)N[C@H](C(=O)N[C@@H](CCCNC(=N)N)C(=O)O)C(C)C)C(C)C)[C@@H](C)O : 158
CC[C@H](C)[C@H](NC(=O)[C@H](CS)NC(=O)[C@H](Cc1c[nH]cn1)NC(=O)[C@H](C)NC(=O)[C@H](C)NC(=O)[C@@H](NC(=O)[C@H](CC(C)C)NC(=O)[C@@H](NC(=O)[C@H](Cc1c[nH]c2ccccc12)NC(=O)[C@H](CCC(N)=O)NC(=O)[C@@H]1CCCN1C(=O)[C@@H](N)Cc1c[nH]cn1)C(C)C)[C@@H](C)O)C(=O)N[C@@H](CCCNC(=N)N)C(=O)N[C@@H](CC(N)=O)C(=O)N[C@@H](CCCCN)C(=O)O : 283
CC[C@H](C)[C@H](NC(=O)[C@H](CC(N)=O)NC(=O)[C@H](CCC(=O)O)NC(=O)[C@H](C)NC(=O)[C@H](CCCCN)NC(=O)[C@H](CC(C)C)NC(=O)[C@H](CCC(=O)O)NC(=O)[C@H](CC(=O)O)NC(=O)[C@@H](N)CC(C)C)C(=O)N[C@@H](CCCCN)C(=O)N[C@@H](CCCCN)C(=O)N[C@@H](Cc1ccccc1)C(=O)N[C@@H](CC(C)C)C(=O)N[C@@H](Cc1ccc(O)cc1)C(=O)N[C@@H](CC(N)=O)C(=O)O : 7470
CC[C@H](C)[C@H](NC(=O)[C@H](CO)NC(=O)[C@H](CO)NC(=O)[C@H](CC(=O)O)NC(=O)[C@H](C)NC(=O)[C@H](CC(N)=O)NC(=O)[C@@H](NC(=O)[C@H](Cc1ccc(O)cc1)NC(=O)[C@H](C)NC(=O)[C@@H](NC(=O)CNC(=O)[C@H](CCCNC(=N)N)NC(=O)[C@@H](N)CCC(=O)O)C(C)C)[C@@H](C)CC)C(=O)N[C@@H](CCC(=O)O)C(=O)NCC(=O)O : 34000
CSCC[C@H](NC(=O)[C@H](CC(C)C)NC(=O)[C@H](CC(=O)O)NC(=O)[C@@H](N)Cc1c[nH]cn1)C(=O)N[C@@H](CC(C)C)C(=O)N[C@@H](CC(C)C)C(=O)N[C@@H](CCCNC(=N)N)C(=O)N[C@@H](CC(C)C)C(=O)N[C@@H](CO)C(=O)N[C@@H](CCC(=O)O)C(=O)N1CCC[C@H]1C(=O)N[C@@H](C)C(=O)N[C@@H](CCC(=O)O)C(=O)N[C@@H](CC(C)C)C(=O)N[C@H](C(=O)O)[C@@H](C)O : 152

Could you share which IC50 value was measured for `CC[C@H](C)[C@H](NC(=O)CNC(=O)[C@H](CCC(N)=O)NC(=O)[C@H](CC(C)C)NC(=O)[C@@H](NC(=O)CNC(=O)[C@H](CC(N)=O)NC(=O)[C@H](CS)NC(=O)[C@@H](NC(=O)[C@H](CC(C)C)NC(=O)[C@@H]1CCCN1C(=O)CN)C(C)C)C(C)C)C(=O)N[C@H](C(=O)N[C@@H](CO)C(=O)N[C@@H](Cc1c[nH]c2ccccc12)C(=O)O)[C@@H](C)O` ?
4890
